Exercise: state measured Ratio for each of the compounds provided.
Tested on: Nucleic Acid
Experiment: Ratio of binding constant of compound binding to human quadruplex DNA over that of duplex DNA
Format: nucleic-acid assay

CN(C)c1ccc(Nc2c3ccc(NC(=O)CCCN4CCCC4)cc3nc3cc(NC(=O)CCCN4CCCC4)ccc23)cc1    48
O=C(CCCN1CCCC1)Nc1ccc2c(Nc3ccc(NC(=O)CCN4CCCC4)cc3)c3ccc(NC(=O)CCCN4CCCC4)cc3nc2c1    0.6

For every item below, please supply its Ratio.
1. CN(C)c1ccc(Nc2c3ccc(NC(=O)CCCCN4CCCC4)cc3nc3cc(NC(=O)CCCCN4CCCC4)ccc23)cc1
2. CN(C)c1ccc(Nc2c3ccc(NC(=O)CCN4CCCC4)cc3nc3cc(NC(=O)CCN4CCCC4)ccc23)cc1
3. O=C(CCN1CCCC1)Nc1ccc(Nc2c3ccc(NC(=O)CCN4CCCC4)cc3nc3cc(NC(=O)CCN4CCCC4)ccc23)cc1
4. O=C(CCCN1CCCC1)Nc1ccc(Nc2c3ccc(NC(=O)CCN4CCCC4)cc3nc3cc(NC(=O)CCN4CCCC4)ccc23)cc1

1. 4.5
2. 31
3. 29
4. 12.8

====

Molecular target: Telomerase reverse transcriptase (Homo sapiens, UniProt O14746)
Sequence (O14746 whole entry): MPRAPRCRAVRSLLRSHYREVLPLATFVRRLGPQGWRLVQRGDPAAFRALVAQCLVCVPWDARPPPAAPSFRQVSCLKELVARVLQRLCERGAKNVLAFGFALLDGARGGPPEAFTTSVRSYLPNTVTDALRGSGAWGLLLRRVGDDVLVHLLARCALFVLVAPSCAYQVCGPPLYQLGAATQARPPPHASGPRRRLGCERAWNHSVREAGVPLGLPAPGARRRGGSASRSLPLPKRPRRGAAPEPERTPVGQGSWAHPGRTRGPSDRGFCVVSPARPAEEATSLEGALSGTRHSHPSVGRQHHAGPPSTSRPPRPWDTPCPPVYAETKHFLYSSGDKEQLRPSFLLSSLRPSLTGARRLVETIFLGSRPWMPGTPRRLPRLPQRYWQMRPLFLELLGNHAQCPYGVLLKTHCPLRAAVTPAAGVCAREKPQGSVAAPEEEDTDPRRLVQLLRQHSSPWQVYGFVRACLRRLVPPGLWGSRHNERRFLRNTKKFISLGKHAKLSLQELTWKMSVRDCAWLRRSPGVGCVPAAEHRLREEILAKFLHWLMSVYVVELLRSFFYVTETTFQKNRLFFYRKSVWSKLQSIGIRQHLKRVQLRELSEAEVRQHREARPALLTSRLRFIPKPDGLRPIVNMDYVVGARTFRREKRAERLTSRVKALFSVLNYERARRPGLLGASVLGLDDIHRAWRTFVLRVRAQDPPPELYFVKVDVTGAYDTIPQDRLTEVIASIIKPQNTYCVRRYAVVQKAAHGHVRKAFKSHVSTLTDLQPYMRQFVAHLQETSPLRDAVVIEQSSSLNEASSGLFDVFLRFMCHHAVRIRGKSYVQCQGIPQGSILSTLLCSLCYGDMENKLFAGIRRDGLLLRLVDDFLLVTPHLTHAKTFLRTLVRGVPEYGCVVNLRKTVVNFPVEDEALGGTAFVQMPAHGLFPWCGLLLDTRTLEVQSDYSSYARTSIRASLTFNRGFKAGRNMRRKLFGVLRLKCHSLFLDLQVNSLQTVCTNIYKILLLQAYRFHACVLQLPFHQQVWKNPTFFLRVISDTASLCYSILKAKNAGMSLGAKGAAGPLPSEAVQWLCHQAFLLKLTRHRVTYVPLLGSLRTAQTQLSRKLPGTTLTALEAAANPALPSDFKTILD
Assay: Inhibition of telomerase activity from human A2780 cells
Could you please report measured EC50 for the items listed next?
One number for each entry, in µM.

O=C(CCCN1CCCC1)Nc1ccc2c(Nc3ccc(NC(=O)CCN4CCCC4)cc3)c3ccc(NC(=O)CCCN4CCCC4)cc3nc2c1    0.326

For every record below, what is its EC50?
1. O=C(CCN1CCCC1)Nc1ccc2c(Nc3ccc(NC(=O)CN4CCCC4)cc3)c3ccc(NC(=O)CCN4CCCC4)cc3nc2c1
2. CN(C)c1ccc(Nc2c3ccc(NC(=O)CCCN4CCCC4)cc3nc3cc(NC(=O)CCCN4CCCC4)ccc23)cc1
3. CN(C)c1ccc(Nc2c3ccc(NC(=O)CCCCCN4CCCC4)cc3nc3cc(NC(=O)CCCCCN4CCCC4)ccc23)cc1
4. O=C(CCCCN1CCCC1)Nc1ccc2c(Nc3ccc(NC(=O)CCN4CCCC4)cc3)c3ccc(NC(=O)CCCCN4CCCC4)cc3nc2c1
5. CN(C)c1ccc(Nc2c3ccc(NC(=O)CCCCN4CCCC4)cc3nc3cc(NC(=O)CCCCN4CCCC4)ccc23)cc1

1. 0.167
2. 0.099
3. 6.91
4. 0.255
5. 1.93

====

Tested on: Nucleic Acid
Experiment: Ratio of binding constant of compound binding to human quadruplex DNA over that of duplex DNA
Assay type: nucleic-acid assay
Mark FALSE for Ratio values under 10, and TRUE for everything at or above.

Reference set, count: 4
O=C(CCCCN1CCCC1)Nc1ccc2c(Nc3ccc(NC(=O)CCN4CCCC4)cc3)c3ccc(NC(=O)CCCCN4CCCC4)cc3nc2c1    FALSE
O=C(CCN1CCCC1)Nc1ccc2c(Nc3ccc(NC(=O)CN4CCCC4)cc3)c3ccc(NC(=O)CCN4CCCC4)cc3nc2c1    TRUE
O=C(CN1CCCC1)Nc1ccc2cc3ccc(NC(=O)CN4CCCC4)cc3nc2c1    FALSE
O=C(CCCCCN1CCCC1)Nc1ccc2c(Nc3ccc(NC(=O)CCN4CCCC4)cc3)c3ccc(NC(=O)CCCCCN4CCCC4)cc3nc2c1    TRUE

Now, please, on to the next compound.
Form field: Ratio at least 10? Entry: CN(C)c1ccc(Nc2c3ccc(NC(=O)CCCCCN4CCCC4)cc3nc3cc(NC(=O)CCCCCN4CCCC4)ccc23)cc1
FALSE
